Tested on: Human rhinovirus sp.
test method notes: In vitro concentration required to inhibit 80 percent of human rhinovirus 15 serotypes was determined by TCID50 assay
Format: functional
recorded metric: MIC80 (µM)
The reply should be a number in µM, with the unit left off.

Q. // map CCc1cc(CCCOc2c(Cl)cc(-c3noc(C)n3)cc2Cl)on1 to recorded MIC80 (system: Human rhinovirus sp.)
A. 0.22

###

Test system: Human rhinovirus sp.
test method notes: In vitro concentration required to inhibit 80 percent of human rhinovirus 15 serotypes was determined by TCID50 assay
Type: functional
List of MIC80 values.
Provide only the numeric value, understood in µM.

Completed entries (count: 4):
Cc1cc(CCCOc2c(C)cc(-c3noc(C4CC4)n3)cc2C)on1 | 0.54
Cc1nc(-c2cc(C)c(OCCCc3cc(C4CC4)no3)c(C)c2)no1 | 0.2
COCc1nc(-c2cc(C)c(OCCCc3cc(C)no3)c(C)c2)no1 | 0.43
Cc1cc(CCCOc2c(Cl)cc(-c3noc(C)n3)cc2Cl)on1 | 0.19

Q. Param item = CCc1cc(CCCOc2c(C)cc(-c3noc(C)n3)cc2C)on1 ; retrieve measured MIC80.
A. 0.26

Q. Quick one: MIC80 of Cc1nc(-c2cc(C)c(OCCCc3cc(CS(C)(=O)=O)no3)c(C)c2)no1 ?
A. 0.77

Q. Fill in the blank: the reported MIC80 of COCc1cc(CCCOc2c(C)cc(-c3noc(C)n3)cc2C)on1 is ____.
A. 0.22

Q. What value of measured MIC80 is listed for CCc1cc(CCCOc2c(C)cc(-c3noc(CC)n3)cc2C)on1 ?
A. 0.4

Q. What MIC80 value was documented for this molecule, Cc1cc(CCCOc2c(C)cc(-c3noc(C(C)C)n3)cc2C)on1 ?
A. 0.93

Q. Which MIC80 reading was recorded for the molecule Cc1nc(-c2cc(C)c(OCCCc3cc(C[S+](C)[O-])no3)c(C)c2)no1 (centres undefined) ?
A. 1

Q. Could you tell me which MIC80 is on file for CCCc1cc(CCCOc2c(C)cc(-c3noc(C)n3)cc2C)on1 ?
A. 0.21

Q. MIC80 lookup needed for CNc1nc(-c2cc(C)c(OCCCc3cc(C)no3)c(C)c2)no1 , thanks.
A. 0.95

Q. Value lookup for MIC80; key = CCc1nc(-c2cc(C)c(OCCCc3cc(COC)no3)c(C)c2)no1
A. 0.21

Q. Item CCCc1nc(-c2cc(C)c(OCCCc3cc(C)no3)c(C)c2)no1 has what recorded MIC80?
A. 0.79
